FYI, the data here is from the nanobody polyreactivity screen of Harvey et al. (2022).

- Assay notes: yeast display, Sf9 membrane polyspecificity reagent, FACS + sequencing; frameworks hold sequencing errors
Measured endpoint: polyreactivity (PSR sort gate)

Example entries and their recorded answers appear below.
QVQLVESGGGLVQAGGSLRLSCAASGSISSWYAMGWYRQAPGKERELVAAISSGVTTYYADSVKGRFTISRDNAKNTVYLQMHSLKPEDTAVDYCAAKTALYRERGYWGQGTQVTVSS : low polyreactivity
QVQLVESGGGLVQAGGSLRLSCAASGFIFLGNAMGWYRPAPGKERDLVAAISSGGSTYADSVKGRFTISRDNAKYTVYLQMNSLKPEDTAVYYCAVDRAFRAQNYHEYDYWGQGTQVTVSS : low polyreactivity
QVQLVESGGGLVQAGGSLRLSCAASGRTFRRYAMGWYRQAPGKEREFVAAIRYSGGITYYADSVKGRFTISRDNAKNTVYLQMNSLKPEDTAVFYCAAYGWGNRWYSRFDYWGQGTQVTVSS : high polyreactivity
QVQLVESGGGLVQAGGSLRLSCAASGSTFQRYAMGWYRQAPGKERELVAAISSRGGSTYYADSVKGRFTISRDNAKNTVYLQMNSLKPEDTAVYYCAALGHLRYDYWGQGTQVTVSS : high polyreactivity
QVQLVESGGGLEQAGGSLRLSCAASGGTFARYVMGWYRQAPGKERELVAAITSGGRTYYADSVKGRFTISRDNAKNTVYLQMNSLKPEDTAVYYCATAPRRRATSYYYWGQGTQVTVSS : high polyreactivity
QDQLVDSGGGLVQAGGSLRLSCAPSGSTIYPNAKGWTRQAPGKERELVAGISSGGGTYYADSVKGRFTISRDNAKNTVYLQMNSLKPEDTAVYYCNAYFLSSCLDYLGQGTQVTVSS : low polyreactivity

Field: polyreactivity (PSR sort gate). Fill in for each record below.
1. QVQLVESGGGLVQAGGSLRLSCAASGSIFTYYAMGWYRPAPGKERELVAAISSDGSTTYADSVKGRFTISRDNAKNTVYLQMNSLKPEDTAVYYCAASQFYFYYSPDGYDFWGQGTQVTVSS
2. QVQLVESGGGLVQAGGSLRLSCAASGSTFVGYAMGWYRQAPGKERELVAAISRTGASTYYADSVKGRFTISRDNAKNTVYLQMNSLKPADTAVYYCAYYYSIYDYWGQGTQVTVSS
3. QVNLVQSAGGLVQAGCSLRLSCPASGFILYKNAMGRYRQKPGKERELVAISSSGGSTYYADSVKGRFTISRENAKNTVYLLMNSLKPEDTAVYYCGAYIYGTYYYWGQGTQVTVSS
4. QVQHVESGGGLVQAGGSLRLSSAASGSIFSYNAMGWYRQSPGKERELVAAIRASGGDTYYADSVKGRFTISRDNAKNTVYLQMNSLKPEDTAVYYCAARTYSHHYASHGYWGQGTQVTVSS
5. QVQLVESGGGLVQAGGSLRLSCAASGITFYGYDMGWYIQAPGKERELVAAISRSGGSTYYADSVKGRFTISRDNAKNTVYLQMNSLKPEDTAVYYCAADKQGYRGRTPYRYYSWGQGTQVTVSS

["low polyreactivity", "high polyreactivity", "high polyreactivity", "low polyreactivity", "high polyreactivity"]
